# TEST PROTOCOL: P-glycoprotein substrates identified in KB-3-1 adenocarcinoma cell line, qHTS therapeutic library screen (AID 1346986);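 note: potency is the fitted concentration of half-maximal effect; potency is for cytotoxicity meaning loss of cell viability; nearly all actives have a fitted effect of over 60% in size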
# STUDY CONDITIONS: KB-3-1 parental cells viability, CellTiter-Glo, 72 h; series mostly up to 44.5 µM
Results filed as inconclusive are left out. Activity calls are given as the source filed them. Calls come from the whole dose curve; as a rule, active = well fitted inhibition curve with a large enough effect; inconclusive = small, poorly fitted or top-dose-only effect; inactive = no such curve, though single readings can be large or run the other way.
Form field: Potency (one value per entry).

> print(dat)
                                   molecule  experimental.readout      readout.value
1  CCN1CCN(Cc2ccc(NC(=O)c3ccc(C)c(NC(=O)c4cncc(-c5cccs5)c4)c3)cc2C(F)(F)F)CC1               Potency   2.06 µM (active)
2  COC(C(=O)N1Cc2[nH]nc(NC(=O)c3ccc(N4CCN(C)CC4)cc3)c2C1)c1ccccc1 (stereo unspecified)               Potency  0.517 µM (active)

Task: Can you look up the measured Potency of COc1cc(N2CCOCC2)ccc1Nc1ncc(Cl)c(Nc2ccccc2NS(C)(=O)=O)n1 for me?
Output: 2.06 µM (active)

Task: Next molecule: Cc1c(CN2CCN(C(=O)C(C)O)CC2)sc2c(N3CCOCC3)nc(-c3cnc(N)nc3)nc12 (stereo unspecified)
Output: 0.259 µM (active)

Task: Now try CNC(=O)c1cccc(-c2ccc3c(N4CCOC[C@@H]4C)nc(N4CCOC[C@@H]4C)nc3n2)c1 .
Output: 0.92 µM (active)

Task: Moving on to N#Cc1c(Oc2ccc(F)c(NC(=O)Cc3cccc(C(F)(F)F)c3)c2)ccc2nc(NC(=O)C3CC3)sc12
Output: 6.51 µM (active)

Task: What would you report for CCNC(=O)Nc1ccc(-c2nc3c(c(N4CCOC[C@@H]4C)n2)CCN(c2ncccn2)C3)cc1 ?
Output: 0.058 µM (active)

Task: Query CCS(=O)(=O)N1CCN(c2ccc(Nc3ncc(C(N)=O)c(NC4CC4)n3)cc2)CC1 next
Output: 4.61 µM (active)

Task: Could you do the same for C[C@@H]1C[C@H]2O[C@@H]2/C=C\C=C\C(=O)Cc2c(Cl)c(O)cc(O)c2C(=O)O1 , please?
Output: 2.86 µM (active)

Task: Same thing, different molecule: CCn1c(=O)c(-c2ccn[nH]2)cc2c(C)nc(N)nc21
Output: 3.66 µM (active)

Task: Field entry: Cn1c(=O)n(-c2ccc(C(C)(C)C#N)cc2)c2c3cc(C#Cc4cccnc4)ccc3ncc21
Output: 0.126 µM (active)
